method: KARI assay of purified S. exigua KARI and variants with NADH (Examples 6-9)
Format: biochemical
applied.conditions: specific activity ratio

{"molecule": "S63E: Slackia KARI variant with residue S63 mutated to E (protein, UniProt D0WGK0 1-342, looked up, variant S63E) Ketol-acid reductoisomerase …: MSVKTKEKEMAVTILYEQDVDPKVIQGLKVGIIGYGSQGHAHALNLMDSGVDVRVGLREGSSEWKTAEEAGLKVTDMDTAAEEADVIMVLVPDEIQPKVYQEHIAAHLKAGNTLAFAHGFNIHYGYIVPPEDVNVIMCAPKGPGHIVRRQFTEGSGVPDLACVQQDATGNAWDIVLSYCWGVGGARSGIIKATFAEETEEDLFGEQAVLCGGLVELVKAGFETLTEAGYPPELAYFECYHEMKMIVDLMYESGIHFMNYSISNTAEYGEYYAGPKVINEQSREAMKEILKRIQDGSFAQEFVDDCNNGHKRLLEQREAINTHPIETTGAQIRSMFSWIKKED", "Ratio NADH/NADPH (U/mg)": 9}
